SYSTEM: T1, Human biotinylated OX40-His monomer (human, UniProt P43489 29-216, limits assumed, biotinylated)
T1 construct: Bought from Acro Biosystems; also called biotin-OX-40 monomer; not shown: His tag
T1 sequence (looked up): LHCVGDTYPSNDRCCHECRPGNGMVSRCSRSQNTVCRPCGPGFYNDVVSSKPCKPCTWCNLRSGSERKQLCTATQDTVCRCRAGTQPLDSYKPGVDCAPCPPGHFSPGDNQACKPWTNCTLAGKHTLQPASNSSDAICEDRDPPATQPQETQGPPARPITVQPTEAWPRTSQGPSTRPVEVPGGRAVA
ASSAY_PROTOCOL: MSD-SET, biotinylated OX40-His monomer with Fab
OBSERVABLE: Kd (pM)
Respond with the bare value in pM.

Recorded Kd of ADI-25650, Fab (Fab, V domains shown) VH: QVQLVESGGGVVQPGRSLRLSCAASGFTFSVYNMHWVRQAPGKGLEWVAVIAYDGSAKYYADSVKGRFTISRDNSKNTLYLQMNSLRAEDTAVYYCARGRPWYSETGTSAFDIWGQGTMVTVSS VL: DIQMTQSPSSLSASVGDRVTITCQASQDISNYLNWYQQKPGKAPKLLIYDASNLETGVPSRFSGSGSGTDFTFTISSLQPEDIATYYCQQSDHYPTFGGGTKVEIKR , please. 140

Entry ADI-25653, Fab (Fab, V domains shown) VH: QVQLVESGGGVVQPGRSLRLSCAASGFTFVSYNMHWVRQAPGKGLEWVAVIMYDGSAKYYADSVKGRFTISRDNSKNTLYLQMNSLRAEDTAVYYCARGRPWYSETGTSAFDIWGQGTMVTVSS VL: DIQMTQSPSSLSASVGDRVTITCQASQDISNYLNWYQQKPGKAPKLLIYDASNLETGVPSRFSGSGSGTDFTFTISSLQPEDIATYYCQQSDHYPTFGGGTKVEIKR please 86

Entry ADI-25654, Fab (Fab, V domains shown) VH: QVQLVESGGGVVQPGRSLRLSCAASGFTFRSYDMHWVRQAPGKGLEWVAYIAYDGSNKYYADSVKGRFTISRDNSKNTLYLQMNSLRAEDTAVYYCARGRPWYSETGTSAFDIWGQGTMVTVSS VL: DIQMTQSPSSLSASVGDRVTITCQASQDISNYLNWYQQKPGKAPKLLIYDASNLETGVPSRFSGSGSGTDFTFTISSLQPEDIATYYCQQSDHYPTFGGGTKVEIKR please 180

Just for reference, patent US20200140562A1 is where these values come from.
